# tested_system: T1, EsCas13d, nuclease-dead (Eubacterium siraeum, UniProt B0MS50, R295A;H300A;R849A;H854A)
# T1 sequence: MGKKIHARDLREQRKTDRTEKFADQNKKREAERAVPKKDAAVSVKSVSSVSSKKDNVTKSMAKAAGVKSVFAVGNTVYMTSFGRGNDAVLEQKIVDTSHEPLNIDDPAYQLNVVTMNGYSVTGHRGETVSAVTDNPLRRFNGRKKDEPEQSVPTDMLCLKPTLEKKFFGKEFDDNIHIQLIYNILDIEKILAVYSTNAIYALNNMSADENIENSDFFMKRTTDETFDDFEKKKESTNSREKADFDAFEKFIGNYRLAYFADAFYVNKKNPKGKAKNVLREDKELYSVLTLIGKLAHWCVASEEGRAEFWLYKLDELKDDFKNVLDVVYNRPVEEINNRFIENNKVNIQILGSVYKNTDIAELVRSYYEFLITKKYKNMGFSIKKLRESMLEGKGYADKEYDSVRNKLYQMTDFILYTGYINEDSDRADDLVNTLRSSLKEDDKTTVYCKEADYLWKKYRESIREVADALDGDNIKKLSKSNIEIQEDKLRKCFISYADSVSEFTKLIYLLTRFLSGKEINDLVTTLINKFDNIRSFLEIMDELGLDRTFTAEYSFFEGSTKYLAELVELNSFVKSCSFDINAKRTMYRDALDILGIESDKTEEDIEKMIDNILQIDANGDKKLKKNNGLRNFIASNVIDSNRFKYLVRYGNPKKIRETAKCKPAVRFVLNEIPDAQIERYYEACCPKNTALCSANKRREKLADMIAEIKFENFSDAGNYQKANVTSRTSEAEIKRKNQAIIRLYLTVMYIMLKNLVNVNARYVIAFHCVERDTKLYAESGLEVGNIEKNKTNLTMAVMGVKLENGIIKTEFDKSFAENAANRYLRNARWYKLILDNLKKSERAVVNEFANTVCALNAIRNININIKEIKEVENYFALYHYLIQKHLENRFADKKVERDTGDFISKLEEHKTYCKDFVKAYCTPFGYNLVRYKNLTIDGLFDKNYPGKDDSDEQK
# experiment: crRNA (strand 1, pre-loaded); Mg2+; 40 mM Tris-HCl pH 7.5, 150 mM NaCl, 6 mM MgCl2, 1 mM DTT, 0.1% Tween-20, 0.2 mg/ml BSA; 25 C; 10 min per concentration, then washed
# experimental_parameters: tags: His6-TwinStrep-SUMO cleaved; N-terminal SNAP kept (SNAP-Surface 488); label: 3' end held by stalled T7 RNA polymerase

| binder | Kd [nM] |
| --- | --- |
| target 1 U8G,G12C (mixed) RNA 1: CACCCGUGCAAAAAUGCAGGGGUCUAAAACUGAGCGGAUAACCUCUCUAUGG RNA 2: GGGAAUGGAUCCACAUCUACGAAUUCGUACCAUAGAGAGCUUAGCCGCUCACCGAGAUCGGAAGAGCACACGU | 16.4 |
| target 1 G12U,G15U (mixed) RNA 1: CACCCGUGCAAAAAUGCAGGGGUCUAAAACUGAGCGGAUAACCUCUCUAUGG RNA 2: GGGAAUGGAUCCACAUCUACGAAUUCGUACCAUAGAUAGUUUAUCCGCUCACCGAGAUCGGAAGAGCACACGU | 23.3 |
| target 3 insA 3' of 7,insG 3' of 6 (mixed) RNA 1: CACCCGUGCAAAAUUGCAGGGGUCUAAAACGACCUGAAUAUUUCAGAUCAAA RNA 2: GGGAAUGGAUCCACAUCUACGAAUUCGUUUUUGAUCUGAAAUAUUACGAGGUCUGCAGAUCGGAAGAGCACACGU | 21.1 |
| target 1 G5C,G15U (mixed) RNA 1: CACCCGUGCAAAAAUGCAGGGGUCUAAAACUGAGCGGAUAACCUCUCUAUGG RNA 2: GGGAAUGGAUCCACAUCUACGAAUUCGUACCAUAGAUAGGUUAUCCCCUCACCGAGAUCGGAAGAGCACACGU | 28.6 |

Ref: paper PMC10786891
